Hello, the source for this data is patent US10526316B2, in case you need it.

- ASSAYED TARGET: PI3Kδ (Homo sapiens, UniProt O00329)
- Sequence (O00329 whole entry): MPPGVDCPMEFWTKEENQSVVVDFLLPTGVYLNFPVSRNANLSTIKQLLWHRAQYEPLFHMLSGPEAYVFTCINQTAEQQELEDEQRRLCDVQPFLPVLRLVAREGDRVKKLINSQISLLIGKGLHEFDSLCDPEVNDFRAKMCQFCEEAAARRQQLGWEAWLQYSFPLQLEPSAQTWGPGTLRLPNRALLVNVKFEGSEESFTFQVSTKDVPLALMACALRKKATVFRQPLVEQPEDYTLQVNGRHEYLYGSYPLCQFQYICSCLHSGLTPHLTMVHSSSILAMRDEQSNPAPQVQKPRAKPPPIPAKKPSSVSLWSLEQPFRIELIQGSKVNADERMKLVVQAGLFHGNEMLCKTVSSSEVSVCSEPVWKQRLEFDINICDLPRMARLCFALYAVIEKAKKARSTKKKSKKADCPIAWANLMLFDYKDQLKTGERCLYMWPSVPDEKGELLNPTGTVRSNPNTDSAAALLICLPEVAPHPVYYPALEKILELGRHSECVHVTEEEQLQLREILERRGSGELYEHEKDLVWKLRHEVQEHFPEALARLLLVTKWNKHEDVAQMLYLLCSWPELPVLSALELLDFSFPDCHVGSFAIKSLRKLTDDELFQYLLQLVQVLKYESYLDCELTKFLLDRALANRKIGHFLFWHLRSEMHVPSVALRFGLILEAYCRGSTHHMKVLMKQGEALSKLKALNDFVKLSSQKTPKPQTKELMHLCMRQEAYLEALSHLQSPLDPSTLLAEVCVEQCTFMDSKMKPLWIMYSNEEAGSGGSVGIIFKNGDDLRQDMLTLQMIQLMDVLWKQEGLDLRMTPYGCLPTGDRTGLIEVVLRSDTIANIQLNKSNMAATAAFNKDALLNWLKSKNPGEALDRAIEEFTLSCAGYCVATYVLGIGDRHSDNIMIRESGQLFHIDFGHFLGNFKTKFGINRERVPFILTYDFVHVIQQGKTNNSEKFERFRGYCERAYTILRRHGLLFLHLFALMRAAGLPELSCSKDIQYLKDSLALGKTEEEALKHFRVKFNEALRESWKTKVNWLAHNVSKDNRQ
In this section, each of the compounds is paired with its reported pKd.
Scale note: pKd = -log10(concentration in M).

Completed entries (count: 3):
- COMPOUND: "CC(Nc1cccc(F)c1)c1cc(C(=O)N(C)C)cc2ncc(N3CCOCC3)nc12 (stereo not drawn)"
  ENDPOINT VALUE: 7.39
- COMPOUND: "Fc1cc(F)cc(N2CCCC2c2cncc3ncc(N4CCOCC4)nc23)c1 (single isomer, unassigned) [Compound 24]"
  ENDPOINT VALUE: 6.61
- COMPOUND: "CC(Nc1ccc(F)c(F)c1)c1cc(C(=O)N2CC[C@@H](O)C2)cc2ncc(N3CCOCC3)nc12 (single isomer, unassigned) [Compound 300b]"
  ENDPOINT VALUE: 4.63

Q) Given CC(Oc1cc(F)cc(F)c1)c1cc(C(=O)N(C)C)cc2ncc(C3=CCOCC3)nc12 (single isomer, unassigned) [Compound 403b] , state its recorded pKd.
A) 4.76

Q) Consider next the compound CN[C@H]1CCN(C(=O)c2cc(C(C)Nc3cc(F)c(F)c(F)c3)c3nc(N4CCOCC4)cnc3c2)C1 (stereo partly drawn) [Compound 297] in the same way.
A) 6.96

Q) Consider next the compound CC(Oc1cccc(F)c1)c1cc(C(=O)NCCO)cc2ncc(N3CCOCC3)nc12 (single isomer, unassigned) [Compound 334b] in the same way.
A) 5.12

Q) Consider next the compound CC(Nc1cc(F)cc(F)c1)c1cc(C(=O)N2CCNC(C(F)(F)F)C2)cc2ncc(N3CCOCC3)nc12 (single isomer, unassigned) [Compound 237c] in the same way.
A) 6.63

Q) Consider next the compound CC(Nc1ccc(F)c(F)c1)c1cc(C(=O)NCCN(C)C)cc2ncc(N3CCOCC3)nc12 (stereo not drawn) [Compound 299b] in the same way.
A) 5.28

====

- Tested on: Akt phosphorylated at Ser473 in PC-3 cells
- ASSAY NOTES: Cellular assay: phosphorylation of Akt at Ser473 in PC-3 cells (MSD ELISA)
- Assay type: cell-based
- EXPERIMENTAL SETUP: PC-3 cells, 60 min compound incubation, MSD ELISA; read-out: IC50 pAkt_S473
ASSAY ENDPOINT: IC50

- MOLECULE: "CC(Nc1cccc(F)c1)c1cc(C(=O)N2CCC[C@H]2CO)cc2ncc(N3CCOCC3)nc12 (single isomer, unassigned) [Compound 116]"
  ENDPOINT VALUE: "> 513 nM"
- MOLECULE: "CC(Oc1cccc(F)c1)c1cc(C(=O)N(C)C)cc2ncc(N3CCOCC3)nc12 (single isomer, unassigned) [Compound 339b]"
  ENDPOINT VALUE: "> 513 nM"
- MOLECULE: "CC(C)NCCNC(=O)c1cc(C(C)Nc2ccc(Cl)c(F)c2)c2nc(N3CCOCC3)cnc2c1 (single isomer, unassigned) [Compound 312b]"
  ENDPOINT VALUE: "> 513 nM"
- MOLECULE: "CC(Nc1cc(F)cc(F)c1)c1cc(COCCO)cc2ncc(N3CCOCC3)nc12 (single isomer, unassigned) [Compound 177]"
  ENDPOINT VALUE: "60 nM"

Q) Given CC(Nc1cc(F)cc(F)c1)c1cc(C(=O)N2CCNC(C(F)(F)F)C2)cc2ncc(N3CCOCC3)nc12 (single isomer, unassigned) [Compound 237b] , state its recorded IC50.
A) > 513 nM

Q) Consider next the molecule COCCNC(=O)c1cc(C(C)Nc2cc(F)cc(F)c2)c2nc(N3CCOCC3)cnc2c1 (single isomer, unassigned) [Compound 204] in the same way.
A) > 513 nM

Q) Consider next the molecule CC(Nc1ccc(F)c(F)c1)c1cc(C(=O)NC[C@@H](C)O)cc2ncc(N3CCOCC3)nc12 (single isomer, unassigned) [Compound 346a] in the same way.
A) 178 nM

Q) Consider next the molecule CC(Nc1cc(F)cc(F)c1)c1cc(CN2CCOCC23COC3)cc2ncc(N3CCOCC3)nc12 (single isomer, unassigned) [Compound 192] in the same way.
A) > 513 nM

====

Values of pKd reported for kinase enzymes (Homo sapiens) appear below.
Scale note: pKd = -log10(concentration in M).

Completed entries (count: 2):
- COMPOUND: "CC(Nc1cc(F)cc(F)c1)c1cc(C(=O)N2CCNC(C(F)(F)F)C2)cc2ncc(N3CCOCC3)nc12 (stereo not shown) [Compound 237]"
  pKd: 5.03
- COMPOUND: "C[C@@H](Nc1cc(F)cc(F)c1)c1cc(C(=O)NCCN(C)C)cc2ncc(N3CCOCC3)nc12 [Compound 184c]"
  pKd: 5.90

Q) Given CC(Nc1cc(F)c(F)c(F)c1)c1cc(C(=O)NCCO)cc2ncc(N3CCOCC3)nc12 (single isomer, unassigned) , state its recorded pKd.
A) 5.34

====

In this section, each of the compounds is paired with its reported melting point.
Numbers only; they are read as °C.

- COMPOUND: "CNCCOCCN(C)C(=O)c1cc(C(C)Nc2cc(F)c(F)c(F)c2)c2nc(N3CCOCC3)cnc2c1 (single isomer, unassigned) [Compound 315a]"
  melting point (°C): 86
- COMPOUND: "CC(Oc1cccc(F)c1)c1cc(C(=O)N(C)C)cc2ncc(N3CCOCC3)nc12 (centres unmarked) [Compound 68]"
  melting point (°C): 49
- COMPOUND: "CC(Nc1ccc(F)c(F)c1)c1cc(CO)cc2ncc(N3CCOCC3)nc12 (centres unmarked) [Compound 303]"
  melting point (°C): 138
- COMPOUND: "Cc1ccc(NC(C)c2cc(C(=O)NCCO)cc3ncc(N4CCOCC4)nc23)cc1F (centres unmarked) [Compound 295]"
  melting point (°C): 80
- COMPOUND: "CC(Nc1ccc(F)c(F)c1)c1cc(C(=O)N[C@H]2CCNC2)cc2ncc(N3CCOCC3)nc12 (single isomer, unassigned) [Compound 374a]"
  melting point (°C): 132
- COMPOUND: "CC(Nc1ccccc1)c1cc(C(=O)N(C)C)cc2ncc(N3CCOCC3)nc12 (centres unmarked) [Compound 150]"
  melting point (°C): 110
- COMPOUND: "CNCCOCCN(C)C(=O)c1cc(C(C)Nc2ccc(F)c(F)c2)c2nc(N3CCOCC3)cnc2c1 (single isomer, unassigned) [Compound 345a]"
  melting point (°C): 80

Q) Given CC(Nc1ccc(F)c(F)c1)c1cc(C(=O)NCCCO)cc2ncc(N3CCOCC3)nc12 (single isomer, unassigned) [Compound 280a] , state its recorded melting point.
A) 80

====

- ASSAYED TARGET: PI3Kβ (Homo sapiens, UniProt P42338)
- Construct: purchased DiscoveRx Corporation, San Diego (contract service, KINOMEscan)
- Sequence (P42338 whole entry): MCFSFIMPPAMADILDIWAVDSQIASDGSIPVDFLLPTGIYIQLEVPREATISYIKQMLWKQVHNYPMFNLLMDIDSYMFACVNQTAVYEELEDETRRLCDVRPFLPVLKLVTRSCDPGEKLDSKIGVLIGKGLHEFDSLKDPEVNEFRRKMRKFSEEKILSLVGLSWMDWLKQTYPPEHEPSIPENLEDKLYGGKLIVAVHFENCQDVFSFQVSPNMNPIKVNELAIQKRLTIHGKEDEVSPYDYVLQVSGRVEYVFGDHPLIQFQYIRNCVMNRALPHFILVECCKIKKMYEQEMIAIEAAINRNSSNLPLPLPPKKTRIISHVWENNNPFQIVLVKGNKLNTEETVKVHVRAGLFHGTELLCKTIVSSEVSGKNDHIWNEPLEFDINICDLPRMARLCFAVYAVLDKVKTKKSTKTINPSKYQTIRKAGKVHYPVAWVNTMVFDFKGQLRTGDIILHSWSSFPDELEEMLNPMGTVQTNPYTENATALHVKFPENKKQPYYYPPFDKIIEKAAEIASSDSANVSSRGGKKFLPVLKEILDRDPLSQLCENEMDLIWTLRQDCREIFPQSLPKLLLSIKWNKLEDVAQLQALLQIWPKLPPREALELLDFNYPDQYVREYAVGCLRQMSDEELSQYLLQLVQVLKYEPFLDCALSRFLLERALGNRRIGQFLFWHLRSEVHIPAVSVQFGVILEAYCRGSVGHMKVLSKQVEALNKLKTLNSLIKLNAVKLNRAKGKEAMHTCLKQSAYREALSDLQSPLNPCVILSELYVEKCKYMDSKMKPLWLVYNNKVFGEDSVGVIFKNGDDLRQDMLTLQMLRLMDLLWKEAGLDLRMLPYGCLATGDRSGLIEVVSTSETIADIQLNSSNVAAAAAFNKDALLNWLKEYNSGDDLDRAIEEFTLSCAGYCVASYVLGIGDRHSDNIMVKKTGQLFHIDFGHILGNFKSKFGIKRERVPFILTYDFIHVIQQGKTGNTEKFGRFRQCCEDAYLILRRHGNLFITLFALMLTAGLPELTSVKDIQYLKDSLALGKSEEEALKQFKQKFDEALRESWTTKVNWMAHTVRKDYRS
- ASSAY NOTES: Enzyme binding assay (KINOMEscan, DiscoveRx)
- EXPERIMENTAL SETUP: PIK3Cβ_h, read-out: Kd PIK3Cβ_h
In this section, each of the compounds is paired with its reported Kd.
Numbers only; they are read as nM.

Completed entries (count: 2):
- COMPOUND: "CN(C(=O)c1cc(NCc2cc(F)cc(F)c2)c2nc(N3CCOCC3)cnc2c1)[C@H]1CCNC1"
  ASSAYED TARGET: "PI3Kβ (Homo sapiens, UniProt P42338)"
  VALUE UNIT: "nM"
  Kd: 7
- COMPOUND: "CC(Nc1cc(F)cc(F)c1)c1cc(C(=O)NC2CN(CC(F)(F)F)C2)cc2ncc(N3CCOCC3)nc12 (stereo not drawn)"
  ASSAYED TARGET: "PI3Kβ (Homo sapiens, UniProt P42338)"
  VALUE UNIT: "nM"
  Kd: 8

Q) Given CC(Nc1cc(F)cc(F)c1)c1cncc2ncc(N3CCOCC3)nc12 (stereo not drawn) , state its recorded Kd.
A) 8

====

In this section, each of the compounds is paired with its reported melting point.
Numbers only; they are read as °C.

Completed entries (count: 4):
- COMPOUND: "CC(C)NCCNC(=O)c1cc(C(C)Nc2cc(F)cc(F)c2)c2nc(N3CCOCC3)cnc2c1 (single isomer, unassigned) [Compound 212]"
  VALUE UNIT: "°C"
  ENDPOINT VALUE: 204
- COMPOUND: "Cc1ccc(NC(C)c2cc(C(=O)NCCO)cc3ncc(N4CCOCC4)nc23)cc1F (single isomer, unassigned) [Compound 295b]"
  VALUE UNIT: "°C"
  ENDPOINT VALUE: 120
- COMPOUND: "C[C@H](Nc1cc(C(=O)N(C)C)cc2ncc(N3CCOCC3)nc12)c1ccc(F)cc1 [Compound 401]"
  VALUE UNIT: "°C"
  ENDPOINT VALUE: 80
- COMPOUND: "CC(Sc1ccccc1)c1cc(C(=O)N(C)C)cc2ncc(N3CCOCC3)nc12 (centres unmarked) [Compound 135]"
  VALUE UNIT: "°C"
  ENDPOINT VALUE: 144

Now take the following compound into account.
Q) Given CNCCN(C)C(=O)c1cc(C2CCCN2c2cc(F)cc(F)c2)c2nc(N3CCOCC3)cnc2c1 (centres unmarked) [Compound 18] , state its recorded melting point.
A) 80
